src = BigSolDB 2.1

conditions: in mesitylene, 303.15 K
readout.label: solubility (mole fraction)
Reply with just the number.

Incoming: Dear colleague, please send me the reported solubility (mole fraction) for O=[N+]([O-])c1cc(F)c(F)cc1[N+](=O)[O-] when you can.
Outgoing: 0.00279

----------
conditions: in o-xylene, 308.15 K
readout.label: solubility (mole fraction)
Reply with just the number.

Incoming: Dear colleague, please send me the reported solubility (mole fraction) for O=[N+]([O-])c1cc(F)c(F)cc1[N+](=O)[O-] when you can.
Outgoing: 0.00327

----------
settings: in p-xylene, 328.15 K
readout.label: solubility (mole fraction)

Incoming: Dear colleague, please send me the reported solubility (mole fraction) for O=[N+]([O-])c1cc(F)c(F)cc1[N+](=O)[O-] when you can.
Outgoing: 0.00647
